Target: human EGF (epidermal cell growth factor) receptor tyrosine kinase (Homo sapiens, UniProt P00533)
Construct: A431 cell membrane fraction, which was provided for the assay as the partially purified EGF receptor, enzyme source; endogenous in cells; host or cells: A431 (human squamous cell carcinoma), crude membrane fraction (27500 x g pellet)
Sequence (P00533 25-1210): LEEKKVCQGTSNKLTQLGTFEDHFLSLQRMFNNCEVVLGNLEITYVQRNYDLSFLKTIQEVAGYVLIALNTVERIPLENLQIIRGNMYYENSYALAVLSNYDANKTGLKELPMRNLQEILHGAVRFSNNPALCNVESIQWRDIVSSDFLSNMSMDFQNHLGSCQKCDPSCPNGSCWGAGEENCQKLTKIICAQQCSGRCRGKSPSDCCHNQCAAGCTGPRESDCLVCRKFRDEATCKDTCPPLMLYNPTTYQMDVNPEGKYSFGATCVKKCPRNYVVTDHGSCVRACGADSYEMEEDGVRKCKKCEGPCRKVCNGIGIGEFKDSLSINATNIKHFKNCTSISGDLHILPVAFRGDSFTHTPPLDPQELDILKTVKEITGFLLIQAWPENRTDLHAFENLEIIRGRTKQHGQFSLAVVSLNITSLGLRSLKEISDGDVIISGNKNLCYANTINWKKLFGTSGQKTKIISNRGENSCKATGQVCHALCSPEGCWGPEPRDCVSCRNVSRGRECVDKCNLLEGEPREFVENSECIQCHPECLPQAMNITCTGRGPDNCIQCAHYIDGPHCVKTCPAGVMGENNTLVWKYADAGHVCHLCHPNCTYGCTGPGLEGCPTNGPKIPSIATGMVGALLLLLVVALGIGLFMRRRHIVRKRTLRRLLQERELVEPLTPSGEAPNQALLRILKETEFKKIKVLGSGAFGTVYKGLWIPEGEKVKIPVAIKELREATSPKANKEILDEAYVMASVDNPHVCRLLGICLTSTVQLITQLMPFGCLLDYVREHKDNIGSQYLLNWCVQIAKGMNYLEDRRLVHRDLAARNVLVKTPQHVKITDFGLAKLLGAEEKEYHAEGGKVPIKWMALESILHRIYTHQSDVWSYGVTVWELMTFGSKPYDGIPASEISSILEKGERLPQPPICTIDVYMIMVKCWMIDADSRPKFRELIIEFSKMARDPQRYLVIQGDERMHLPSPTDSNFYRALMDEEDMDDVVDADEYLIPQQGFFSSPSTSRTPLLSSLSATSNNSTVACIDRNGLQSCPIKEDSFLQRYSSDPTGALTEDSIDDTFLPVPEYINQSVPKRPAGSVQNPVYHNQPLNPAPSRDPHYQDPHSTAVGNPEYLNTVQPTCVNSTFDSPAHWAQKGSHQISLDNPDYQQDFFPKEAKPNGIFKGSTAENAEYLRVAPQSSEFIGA
Sequence (P01133 971-1023 partner limits assumed): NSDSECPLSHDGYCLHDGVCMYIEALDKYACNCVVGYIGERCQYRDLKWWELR
Experiment: Tyrosine kinase activity inhibition (partially purified EGF receptor from A431 cell membrane fraction, RR-SRC peptide, 32P-ATP)
Type: biochemical
Conditions: read-out: Inhibitory Rate (%) in the presence of 10 µM
Protocol: Detailed explanation of the assaying method will be given below. A431 cells were cultivated in Dulbecco's modified Eagle's medium (DMEM) containing 10% fetal calf serum (FCS) at 37°C in a stream of 5% carbon dioxide, and the resultant cells were homogenized in a solution containing 10 mM N-2-hydroxyethylpiperazino-N'-2-ethanesulfonic acid (Hepes) buffer (pH 7.4), 0.25M sucrose and 0.1 mM EDTA and centrifuged at 1000 g for 5 minutes. At that time the volume was 60 µl. […]
# reported inhibition at 10 µM; entries follow
Give your result in % as a bare value.

Solved entries:
Data request, read-out inhibition at 10 µM, for N#CC(=Cc1ccc(O)c(O)c1)C(=O)Nc1cccc(Cl)c1
100

How about N#CC(=Cc1cc(O)c(O)c(Cl)c1)C(=O)Nc1ccccc1 ?
74

How about Cc1cccc(NC(=O)C(C#N)=Cc2ccc(O)c(O)c2)c1 ?
77

Okay, next one:
Data request, read-out inhibition at 10 µM, for COc1cc(C=C(C#N)C(=O)Nc2ccccc2)cc(Cl)c1O
63

The origin of these recorded values is patent EP0537742B1.
